System: CAL-12T
Assay: relative viability (nuclei count vs DMSO), 5 days (fraction); higher = more cells survive
Conditions: first compound 0.04 µM
Checkbox rule: relative viability lower than 0.5 = label 1; relative viability not lower than 0.5 = label 0.

Given the entry Clc1ccc(Nc2nnc(Cc3ccncc3)c3ccccc23)cc1 [Vatalanib] + CS(=O)(=O)CCNCc1ccc(-c2ccc3ncnc(Nc4ccc(OCc5cccc(F)c5)c(Cl)c4)c3c2)o1 [Lapatinib] (partner 2 µM) , would its reported relative viability be below 0.5?
label 0

Given the entry Clc1ccc(Nc2nnc(Cc3ccncc3)c3ccccc23)cc1 [Vatalanib] + Cc1nc(NC(=O)N2CCC[C@H]2C(N)=O)sc1-c1ccnc(C(C)(C)C(F)(F)F)c1 [Alpelisib] (partner 2 µM) , would its reported relative viability be below 0.5?
label 0

Given the entry C[C@@H]1CN(CC(=O)Nc2ccc3c(c2)Cc2cccc(-c4cc(=O)cc(N5CCOCC5)o4)c2S3)C[C@H](C)O1 + N=C(N)NC(=N)NCCc1ccccc1 [Phenformin] (partner 250 µM) , would its reported relative viability be below 0.5?
label 0

Given the entry C[C@@H]1CN(CC(=O)Nc2ccc3c(c2)Cc2cccc(-c4cc(=O)cc(N5CCOCC5)o4)c2S3)C[C@H](C)O1 + CC(=O)c1c(C)c2cnc(Nc3ccc(N4CCNCC4)cn3)nc2n(C2CCCC2)c1=O [Palbociclib] (partner 0.5 µM) , would its reported relative viability be below 0.5?
label 0

Given the entry Clc1ccc(Nc2nnc(Cc3ccncc3)c3ccccc23)cc1 [Vatalanib] + Cc1cc(Nc2cc(N3CCN(C)CC3)nc(Sc3ccc(NC(=O)C4CC4)cc3)n2)n[nH]1 [Tozasertib] (partner 0.1 µM) , would its reported relative viability be below 0.5?
label 1

###

Tested on: NCI-H1915
Assay: relative viability (nuclei count vs DMSO), 5 days (fraction); higher = more cells survive
Conditions: first compound 4 µM
Please respond with reported relative viability for every item in the list.

relative viability for Clc1ccc(Nc2nnc(Cc3ccncc3)c3ccccc23)cc1 [Vatalanib] + CS(=O)(=O)CCNCc1ccc(-c2ccc3ncnc(Nc4ccc(OCc5cccc(F)c5)c(Cl)c4)c3c2)o1 [Lapatinib] (partner 2 µM) is 1.01

relative viability for COc1cc(N2CCC(C(N)=O)CC2)ccc1Nc1nc(N)c(Cl)c(Nc2ccccc2S(=O)(=O)C(C)C)n1 [HG-5-88-01] + O=C(c1cc(Cc2n[nH]c(=O)c3ccccc23)ccc1F)N1CCN(C(=O)C2CC2)CC1 [Olaparib] (partner 8 µM) is 0.248

relative viability for COc1cc(N2CCC(C(N)=O)CC2)ccc1Nc1nc(N)c(Cl)c(Nc2ccccc2S(=O)(=O)C(C)C)n1 [HG-5-88-01] + CS(=O)(=O)CCNCc1ccc(-c2ccc3ncnc(Nc4ccc(OCc5cccc(F)c5)c(Cl)c4)c3c2)o1 [Lapatinib] (partner 2 µM) is 0.698

relative viability for C[C@@H]1CN(CC(=O)Nc2ccc3c(c2)Cc2cccc(-c4cc(=O)cc(N5CCOCC5)o4)c2S3)C[C@H](C)O1 + Nc1nc2[nH]cc(CCc3ccc(C(=O)N[C@@H](CCC(=O)O)C(=O)O)cc3)c2c(=O)[nH]1 [Pemetrexed] (partner 0.2 µM) is 0.358

relative viability for Clc1ccc(Nc2nnc(Cc3ccncc3)c3ccccc23)cc1 [Vatalanib] + C[C@]1(O)C[C@@H](c2nc(-c3ccc4ccc(-c5ccccc5)nc4c3)c3c(N)nccn32)C1 [Linsitinib] (partner 1 µM) is 1.09

relative viability for C[C@@H]1CN(CC(=O)Nc2ccc3c(c2)Cc2cccc(-c4cc(=O)cc(N5CCOCC5)o4)c2S3)C[C@H](C)O1 + CC(=O)Nc1cccc(-n2c(=O)n(C3CC3)c(=O)c3c(Nc4ccc(I)cc4F)n(C)c(=O)c(C)c32)c1 [Trametinib] (partner 0.02 µM) is 0.294

relative viability for C[C@@H]1CN(CC(=O)Nc2ccc3c(c2)Cc2cccc(-c4cc(=O)cc(N5CCOCC5)o4)c2S3)C[C@H](C)O1 + C[C@]1(O)C[C@@H](c2nc(-c3ccc4ccc(-c5ccccc5)nc4c3)c3c(N)nccn32)C1 [Linsitinib] (partner 1 µM) is 1.12

relative viability for Clc1ccc(Nc2nnc(Cc3ccncc3)c3ccccc23)cc1 [Vatalanib] + CC1(C)CCC(c2ccc(Cl)cc2)=C(CN2CCN(c3ccc(C(=O)NS(=O)(=O)c4ccc(N[C@H](CCN5CCOCC5)CSc5ccccc5)c(S(=O)(=O)C(F)(F)F)c4)cc3)CC2)C1 [Navitoclax] (partner 0.5 µM) is 0.779

relative viability for C[C@@H]1CN(CC(=O)Nc2ccc3c(c2)Cc2cccc(-c4cc(=O)cc(N5CCOCC5)o4)c2S3)C[C@H](C)O1 + O=C(CCCCCCC(=O)Nc1ccccc1)NO [Vorinostat] (partner 1 µM) is 0.421

relative viability for C[C@@H]1CN(CC(=O)Nc2ccc3c(c2)Cc2cccc(-c4cc(=O)cc(N5CCOCC5)o4)c2S3)C[C@H](C)O1 + CS(=O)(=O)N1CCN(Cc2cc3nc(-c4cccc5[nH]ncc45)nc(N4CCOCC4)c3s2)CC1 [Pictilisib] (partner 1 µM) is 0.774
